Each entry below carries its reported pIC50.
System: HGC-27
Assay: Cytotoxicity against human HGC-27 cells assessed as reduction in cell viability after 72 hrs by MTT assay
Assay type: functional, cell-based
Conditions: HGC-27, 72 h
Would you please state pIC50, meaning minus log10 of the concentration in mol/L, as a bare number?

O=C1C=CCC/C1=C\C=C\c1ccc(Br)cc1	5.35

Measured pIC50 of O=C1C=CCC/C1=C\C=C\c1ccccc1[N+](=O)[O-] : 5.36

Measured pIC50 of COc1ccc(/C=C/C=C2\CCC=CC2=O)cc1 : 5.49

Measured pIC50 of COc1cc(/C=C/C(=O)N2CCC=CC2=O)cc(OC)c1OC : 5.09

Measured pIC50 of CC(=O)Oc1ccc(/C=C/C=C2\CCC=CC2=O)cc1 : 5.31

Measured pIC50 of O=C1C=CCC/C1=C\C=C\c1ccc(Cl)cc1 : 5.32

Measured pIC50 of O=C1C=CCC/C1=C\C=C\c1ccc([N+](=O)[O-])cc1 : 5.28

The origin of these recorded values is ChEMBL document CHEMBL4665846.
